Molecular target: T1, 14-3-3η, full length, N-terminally His6-tagged (human, UniProt Q04917 1-246)
T1 construct: 14-3-3 eta, human, full length; also called His6-14-3-3η; source: E. coli BL21(DE3), purified (HisTrap, SEC); also in E. coli cell lysate (pulldown); not shown: His6, N-terminal, kept
T1 sequence (looked up): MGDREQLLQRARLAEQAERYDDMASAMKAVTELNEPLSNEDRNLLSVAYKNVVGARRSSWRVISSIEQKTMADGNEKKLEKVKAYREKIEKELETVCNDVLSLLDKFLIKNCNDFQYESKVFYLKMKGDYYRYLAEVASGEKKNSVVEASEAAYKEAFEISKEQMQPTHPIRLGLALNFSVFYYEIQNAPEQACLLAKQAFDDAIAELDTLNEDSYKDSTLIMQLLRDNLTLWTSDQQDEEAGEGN
Experiment: ITC; 14-3-3η (500 µM; 250 µM for peptide 11) titrated into peptide (50 µM; 12.5 µM for peptide 11), 18 injections; 50 mM HEPES pH 7.4, 250 mM NaCl, 20 mM MgCl2; 25 °C
Conditions: both partners purified
Where no end group is shown, it is not given here. [ ]: non-standard residue; d: D form. pS = N[C@@H](COP(=O)(O)O)C(=O)O
PROPERTY NAME: pKd
pKd is defined as minus the log10 of a concentration measured in mol/L.

// query Using known records, supply pKd for NKNAN[pS]SPV (aminopeptidase N (APN, CD13), human, residues 38-46; source: synthetic peptide (Fmoc SPPS, HPLC purified)) [peptide 1, APN 38–46 pSer43, as used in ITC]
// result 5.66
